Reference source: patent US9376433B2

The following molecules are shown together with reported pEC50 values.
# Tested on: tankyrase 1/2
# ASSAY INFO: Cellular inhibition of tankyrase: increase of Axin2 level in DLD1 cells (Luminex)
# Format: cell-based
# RUN PARAMETERS: DLD1 colon carcinoma cells, 24 hours, read-out: EC50 tankyrase 1/2 (cell assay)
pEC50: −log10 of the molar value.

COC(=O)c1ccc(-c2cc3ccc(F)cc3c(=O)[nH]2)cc1 ... 5.52 to 6.52

// pEC50 value for `CC(C)(O)c1ccc(-c2cc3ccncc3c(=O)[nH]2)cc1` : 5.52 to 6.52

// pEC50 value for `Cn1cc(-c2ccc(-c3cc4ccc(F)cc4c(=O)[nH]3)cc2)cn1` : > 6.52

---

The following compounds are shown together with reported IC50 values.
# TGT: Tankyrase-1 (Homo sapiens, UniProt O95271)
# Sequence (O95271 1023-1327): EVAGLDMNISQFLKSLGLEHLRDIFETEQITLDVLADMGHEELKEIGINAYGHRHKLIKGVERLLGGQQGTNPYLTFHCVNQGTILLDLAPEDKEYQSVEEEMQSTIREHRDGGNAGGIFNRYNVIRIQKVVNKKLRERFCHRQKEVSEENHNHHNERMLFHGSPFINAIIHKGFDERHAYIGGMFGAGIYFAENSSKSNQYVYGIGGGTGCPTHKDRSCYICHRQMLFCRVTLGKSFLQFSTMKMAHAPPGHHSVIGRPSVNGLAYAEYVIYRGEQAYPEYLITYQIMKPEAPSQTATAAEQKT

Here's what some known entries look like.
CC(C)(O)c1ccc(-c2cc3c(F)cc(F)cc3c(=O)[nH]2)cc1 [Compound A33] ... < 0.3 µM
Cc1ccc2cc(-c3ccc(C(C)(C)O)cc3)[nH]c(=O)c2c1 [Compound A7] ... 0.3 to 3 µM
CC(C)(O)c1ccc(-c2cc3cnccc3c(=O)[nH]2)cc1 [Compound A23] ... < 0.3 µM
Cn1cc(-c2ccc(-c3cc4ccc(Cl)cc4c(=O)[nH]3)cc2)cn1 [Compound A32] ... < 0.3 µM
CC(C)(F)c1ccc(-c2cc3ccccc3c(=O)[nH]2)cc1 [Compound A13] ... < 0.3 µM
Cn1cc(-c2ccc(-c3cc4ccc(F)cc4c(=O)[nH]3)cc2)cn1 [Compound A18] ... < 0.3 µM
Cc1ccc(-c2cc3c(F)cccc3c(=O)[nH]2)cc1 [Compound A12, 5-fluoro-3-p-tolyl-2H-isoquinolin-1-one] ... < 0.3 µM
COC(=O)c1ccc(-c2cc3ccccc3c(=O)[nH]2)cc1 [Compound A2] ... < 0.3 µM
CC(C)(O)c1ccc(-c2cc3c(F)cccc3c(=O)[nH]2)cc1 [Compound A28] ... < 0.3 µM
O=c1[nH]c(-c2ccc(CO)cc2)cc2ccccc12 [Compound A8] ... < 0.3 µM

Bench note, Tankyrase-1 (Homo sapiens, UniProt O95271): Cc1ccc(-c2cc3cc(F)ccc3c(=O)[nH]2)cc1 [Compound A10, 6-fluoro-3-p-tolyl-2H-isoquinolin-1-one] , IC50 reads 0.3 to 3 µM

---

# TGT: PARP-1 (Homo sapiens, UniProt P09874)
# Sequence (P09874 whole entry): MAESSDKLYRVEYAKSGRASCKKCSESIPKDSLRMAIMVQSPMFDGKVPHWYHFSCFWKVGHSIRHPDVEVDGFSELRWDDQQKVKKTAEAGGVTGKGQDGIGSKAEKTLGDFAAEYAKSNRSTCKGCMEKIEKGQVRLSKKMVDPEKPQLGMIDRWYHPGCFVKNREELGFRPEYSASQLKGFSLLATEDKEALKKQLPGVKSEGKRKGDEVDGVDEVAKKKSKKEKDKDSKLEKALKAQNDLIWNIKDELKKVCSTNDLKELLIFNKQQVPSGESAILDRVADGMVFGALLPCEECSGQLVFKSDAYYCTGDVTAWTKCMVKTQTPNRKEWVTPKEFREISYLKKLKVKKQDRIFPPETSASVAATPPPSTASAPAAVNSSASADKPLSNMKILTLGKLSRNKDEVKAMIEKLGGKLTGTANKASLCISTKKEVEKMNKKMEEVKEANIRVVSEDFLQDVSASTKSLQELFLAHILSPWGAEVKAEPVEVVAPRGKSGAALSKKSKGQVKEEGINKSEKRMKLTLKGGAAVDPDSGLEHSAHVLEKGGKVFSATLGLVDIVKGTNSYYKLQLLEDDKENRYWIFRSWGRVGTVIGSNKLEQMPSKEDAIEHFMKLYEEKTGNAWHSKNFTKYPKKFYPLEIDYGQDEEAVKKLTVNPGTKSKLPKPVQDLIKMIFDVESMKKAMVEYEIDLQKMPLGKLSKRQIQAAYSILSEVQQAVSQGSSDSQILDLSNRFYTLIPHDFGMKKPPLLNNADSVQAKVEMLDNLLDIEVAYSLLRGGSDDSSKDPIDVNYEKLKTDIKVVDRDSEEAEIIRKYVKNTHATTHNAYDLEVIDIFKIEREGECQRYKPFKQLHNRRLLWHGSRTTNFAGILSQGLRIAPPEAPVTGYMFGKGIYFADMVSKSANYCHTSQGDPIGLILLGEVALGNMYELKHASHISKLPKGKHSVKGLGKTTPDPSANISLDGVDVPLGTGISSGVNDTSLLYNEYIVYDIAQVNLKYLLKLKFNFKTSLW
# ASSAY INFO: PARP-1 autoparsylation assay (HTRF)
# RUN PARAMETERS: His-tagged Parp-1, human recombinant
The following compounds are shown together with reported IC50 values.

Here's what some known entries look like.
CC(C)(OCCO)c1ccc(-c2cc3ccc(F)cc3c(=O)[nH]2)cc1 ... 0.3 to 3 µM
Cn1cc(-c2ccc(-c3cc4ccc(F)cc4c(=O)[nH]3)cc2)cn1 ... 0.3 to 3 µM
COC(C)(C)c1ccc(-c2cc3ccccc3c(=O)[nH]2)cc1 ... 0.3 to 3 µM

// IC50 value for `CC(C)(O)c1ccc(-c2cc3ccncc3c(=O)[nH]2)cc1` : 3 to 50 µM

// IC50 value for `Cc1ccc(-c2cc3cccc(F)c3c(=O)[nH]2)cc1` : 0.3 to 3 µM

// IC50 value for `Cc1ccc(-c2cc3ccc(F)cc3c(=O)[nH]2)cc1` : < 0.3 µM

// IC50 value for `CC(C)(O)c1ccc(-c2cc3ccc(F)cc3c(=O)[nH]2)cc1` : 0.3 to 3 µM

// IC50 value for `Cc1ccc(-c2cc3c(C)cccc3c(=O)[nH]2)cc1` : < 0.3 µM

// IC50 value for `CC(C)(O)c1ccc(-c2cc3cc(F)ccc3c(=O)[nH]2)cc1` : 0.3 to 3 µM

// IC50 value for `Cc1ccc(-c2cc3c(F)cccc3c(=O)[nH]2)cc1` : 0.3 to 3 µM

---

Parameter IC50, tested on Tankyrase-2 (Homo sapiens), listed per item.

Here's what some known entries look like.
Cc1ccc(-c2cc3ccc(F)cc3c(=O)[nH]2)cc1 ... < 300 nM
CC(C)(O)c1ccc(-c2cc3cc(F)ccc3c(=O)[nH]2)cc1 ... 300 to 3000 nM
COC(=O)c1ccc(-c2cc3ccc(F)cc3c(=O)[nH]2)cc1 ... 300 to 3000 nM
C=C(C)c1ccc(-c2cc3ccc(F)cc3c(=O)[nH]2)cc1 ... 300 to 3000 nM
Cc1ccc(-c2cc3cccc(F)c3c(=O)[nH]2)cc1 ... < 300 nM
CC(C)(O)c1ccc(-c2cc3ccncc3c(=O)[nH]2)cc1 ... < 300 nM
CC(C)(O)c1ccc(-c2cc3c(F)cc(F)cc3c(=O)[nH]2)cc1 ... 300 to 3000 nM

// IC50 value for `CC(C)(O)c1ccc(-c2cc3cnccc3c(=O)[nH]2)cc1` : < 300 nM

---

Parameter IC50, tested on TNKS1 (Homo sapiens, UniProt O95271), listed per item.

Here's what some known entries look like.
CC(C)(O)c1ccc(-c2cc3cc(F)ccc3c(=O)[nH]2)cc1 ... < 300 nM
Cc1ccc(-c2cc3ccc(F)cc3c(=O)[nH]2)cc1 ... < 300 nM

Next compound, IC50 to be filled in.
Bench note, TNKS1 (Homo sapiens, UniProt O95271): `Cc1ccc(-c2cc3cccc(F)c3c(=O)[nH]2)cc1` , IC50 reads < 300 nM

---

Parameter pIC50, tested on Tankyrase-2 (Homo sapiens, UniProt Q9H2K2), listed per item.
Sequence (Q9H2K2 873-1166): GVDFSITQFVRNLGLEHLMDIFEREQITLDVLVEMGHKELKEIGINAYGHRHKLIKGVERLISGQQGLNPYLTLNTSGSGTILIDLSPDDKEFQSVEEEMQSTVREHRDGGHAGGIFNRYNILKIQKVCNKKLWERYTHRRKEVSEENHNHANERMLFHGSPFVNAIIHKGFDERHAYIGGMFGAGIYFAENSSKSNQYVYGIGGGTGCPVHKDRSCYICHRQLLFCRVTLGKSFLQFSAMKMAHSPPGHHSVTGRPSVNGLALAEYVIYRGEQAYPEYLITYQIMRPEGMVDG
pIC50: −log10 of the molar value.

CC(C)(O)c1ccc(-c2cc3ccc(F)cc3c(=O)[nH]2)cc1 [Compound A6] ... > 6.52

Next compound, pIC50 to be filled in.
Bench note, Tankyrase-2 (Homo sapiens, UniProt Q9H2K2): Cc1ccc(-c2cc3cc(F)ccc3c(=O)[nH]2)cc1 [Compound A10, 6-fluoro-3-p-tolyl-2H-isoquinolin-1-one] , pIC50 reads 5.52 to 6.52

---

# TGT: PARP-1 (Homo sapiens)
# ASSAY INFO: PARP-1 autoparsylation assay (HTRF)
# RUN PARAMETERS: His-tagged Parp-1, human recombinant
The following molecules are shown together with reported IC50 values.

Here's what some known entries look like.
CC(C)(N)c1ccc(-c2cc3ccc(F)cc3c(=O)[nH]2)cc1 [Compound A20] ... < 0.3 µM
CC(C)(O)c1ccc(-c2cc3cccc(F)c3c(=O)[nH]2)cc1 [Compound A27] ... 0.3 to 3 µM
CC(C)(O)c1ccc(-c2cc3c(F)cccc3c(=O)[nH]2)cc1 [Compound A28] ... 0.3 to 3 µM
Cc1ccc(-c2cc3cc(F)ccc3c(=O)[nH]2)cc1 [Compound A10, 6-fluoro-3-p-tolyl-2H-isoquinolin-1-one] ... 3 to 50 µM
Cn1cc(-c2ccc(-c3cc4ccncc4c(=O)[nH]3)cc2)cn1 [Compound A14] ... 3 to 50 µM
CC(C)(O)c1ccc(-c2cc3ccccc3c(=O)[nH]2)cc1 [Compound A3] ... 0.3 to 3 µM

// IC50 value for CC(C)(O)c1ccc(-c2cc3c(F)cc(F)cc3c(=O)[nH]2)cc1 [Compound A33] : < 0.3 µM

// IC50 value for C=C(C)c1ccc(-c2cc3ccc(F)cc3c(=O)[nH]2)cc1 [Compound A17] : 0.3 to 3 µM

// IC50 value for CC(C)(O)c1ccc(-c2cc3cnccc3c(=O)[nH]2)cc1 [Compound A23] : 3 to 50 µM

---

Parameter pIC50, tested on UniProtKB Q9H2K2, listed per item.
pIC50: −log10 of the molar value.

// pIC50 value for `CC(C)(N)c1ccc(-c2cc3ccc(F)cc3c(=O)[nH]2)cc1` : > 6.52

// pIC50 value for `Cn1cc(-c2ccc(-c3cc4ccncc4c(=O)[nH]3)cc2)cn1` : 5.52 to 6.52

// pIC50 value for `CC(C)(O)c1ccc(-c2cc3ccc(Cl)cc3c(=O)[nH]2)cc1` : 5.52 to 6.52

// pIC50 value for `Cn1cc(-c2ccc(-c3cc4ccc(Cl)cc4c(=O)[nH]3)cc2)cn1` : 5.52 to 6.52

// pIC50 value for `Cn1cc(-c2ccc(-c3cc4ccc(F)cc4c(=O)[nH]3)cc2)cn1` : 5.52 to 6.52

---

# Test system: tankyrase 1/2
# ASSAY INFO: Cellular inhibition of tankyrase: increase of Axin2 level in DLD1 cells (Luminex)
# Type: cell-based
# RUN PARAMETERS: DLD1 colon carcinoma cells, 24 hours, read-out: EC50 tankyrase 1/2 (cell assay)
PROPERTY MEASURED: EC50

Here's what some known entries look like.
Cc1ccc2cc(-c3ccc(C(C)(C)O)cc3)[nH]c(=O)c2c1 ... 300 to 3000 nM
CC(C)(F)c1ccc(-c2cc3ccccc3c(=O)[nH]2)cc1 ... 300 to 3000 nM
CC(C)(O)c1ccc(-c2cc3cc(F)ccc3c(=O)[nH]2)cc1 ... 300 to 3000 nM

Bench note, tankyrase 1/2: `CC(C)(O)c1ccc(-c2cc3ccc(F)cc3c(=O)[nH]2)cc1` , EC50 reads < 300 nM

Bench note, tankyrase 1/2: `CC(C)(O)c1ccc(-c2cc3c(F)cccc3c(=O)[nH]2)cc1` , EC50 reads < 300 nM

Bench note, tankyrase 1/2: `CC(C)(O)c1ccc(-c2cc3cccc(F)c3c(=O)[nH]2)cc1` , EC50 reads < 300 nM

Bench note, tankyrase 1/2: `Cn1cc(-c2ccc(-c3cc4ccc(Cl)cc4c(=O)[nH]3)cc2)cn1` , EC50 reads 300 to 3000 nM

Bench note, tankyrase 1/2: `CC(C)(O)c1ccc(-c2cc3c(F)cc(F)cc3c(=O)[nH]2)cc1` , EC50 reads < 300 nM

Bench note, tankyrase 1/2: `CC(C)(OCCO)c1ccc(-c2cc3ccc(F)cc3c(=O)[nH]2)cc1` , EC50 reads < 300 nM

Bench note, tankyrase 1/2: `CC(C)(O)c1ccc(-c2cc3ccc(Cl)cc3c(=O)[nH]2)cc1` , EC50 reads 300 to 3000 nM

Bench note, tankyrase 1/2: `Cc1ccc(-c2cc3ccc(F)cc3c(=O)[nH]2)cc1` , EC50 reads 300 to 3000 nM

Bench note, tankyrase 1/2: `Cc1ccc(-c2cc3cc(F)ccc3c(=O)[nH]2)cc1` , EC50 reads 3000 to 50000 nM

Bench note, tankyrase 1/2: `COC(=O)c1ccc(-c2cc3ccccc3c(=O)[nH]2)cc1` , EC50 reads 300 to 3000 nM

Bench note, tankyrase 1/2: `Cn1cc(-c2ccc(-c3cc4ccncc4c(=O)[nH]3)cc2)cn1` , EC50 reads 300 to 3000 nM
